From: patent US20070202552A1

# experimental system: neutravidin (UniProt P02701)
# Sequence (P02701 25-152): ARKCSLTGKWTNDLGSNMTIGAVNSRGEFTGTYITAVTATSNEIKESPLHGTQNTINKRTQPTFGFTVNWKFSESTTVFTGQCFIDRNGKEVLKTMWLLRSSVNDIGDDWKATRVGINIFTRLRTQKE
# test: specificity phage ELISA
readout name: ELISA signal at 450 nm
Respond with the number and no other words.

G36 (Fab, V domains shown) VH: EVQLVESGGGLVQPGGSLRLSCAASGFSIWWSWIHWVRQAPGKGLEWVASISPSSGWTSYADSVKGRFTISADTSKNTAYLQMNSLRAEDTAVYYCARWSSSAFDYWGQGTLVTVSS VL: DIQMTQSPSSLSASVGDRVTITCRASQDVNTAVAWYQQKPGKAPKLLIYSASSLYSGVPSRFSGSRSGTDFTLTISSLQPEDFATYYCQQWWWWPSTFGQGTKVEIK = 0.26

Here's the next entry for you.
q: # ELISA signal at 450 nm lookup, item G35 (Fab, V domains shown) VH: EVQLVESGGGLVQPGGSLRLSCAASGFSISWSWIHWVRQAPGKGLEWVASIWPSSGWTSYADSVKGRFTISADTSKNTAYLQMNSLRAEDTAVYYCARWWSSALDYWGQGTLVTVSS VL: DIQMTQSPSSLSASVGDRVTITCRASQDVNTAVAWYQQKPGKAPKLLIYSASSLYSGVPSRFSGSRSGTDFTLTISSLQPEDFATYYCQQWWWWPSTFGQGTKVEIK
a: 0.29
